- experiment: splicing luciferase reporter signal modulators, primary screen, spliceosome inhibition project, cell-based, HEK293, splice +/- reporter (AID 1101);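 further: HEK293 cells carrying a splicing-competent luciferase reporter gene; test concentration not given here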
- experimental-setup: luminescence, 24 h, higher = more signal, called active from +8 up or from −8 down
Mark not fulfilled for z-score values under -0.2, and fulfilled for everything at or above.

{"columns": ["compound", "group"],
 "data": [
  ["O=C1O[C@@H](c2ccccc2)[C@@H](c2ccccc2)N2[C@@H](c3ccc(O)cc3)[C@]3(C(=O)Nc4ccc(C#CC5=CCCCC5)cc43)[C@@H](C(=O)NC[C@H](O)c3ccccc3)[C@H]12", "not fulfilled"],
  ["Cc1ccc(S[C@]2(C(=O)NCC(F)(F)F)CC(=O)N(Cc3ccccc3C(F)(F)F)[C@@H]2c2ccc(CO)cc2I)cc1", "fulfilled"],
  ["COC1OC[C@]2(C)[C@H]3C4=C(CN2C(=O)OC(C)(C)C)[C@H](C)C(CO)C(CO)C4CC[C@@H]13 (stereo not given in full)", "fulfilled"],
  ["COC(=O)CCCCCCC(=O)Nc1ccc(NC(=O)CCCC[P+](c2ccccc2)(c2ccccc2)c2ccccc2)cc1", "fulfilled"],
  ["O=C1C2C=CC(C(O)c3ccccc3)N(Nc3ccccc3F)C2C(=O)N1c1ccccc1 (stereo not given)", "not fulfilled"]
]}

* * *

- experiment: basal MM1S mitochondrial membrane potential changes, profiling panel, cell-based, JC-1 fluorescence, 24 h, 100 nL compound (AID 1170); further: test concentration not given here
- experimental-setup: higher = more signal
Recorded z-score by entry

{"columns": ["compound", "z-score"],
 "data": [
  ["CCCC[C@@H]1C[C@H]1[C@@H](NC(=O)Cc1ccccc1)c1ccc(-c2ccccc2)cc1", -1.71],
  ["COCCOC(=O)N1C(=O)[C@@]2(c3cc(C#CC4=CCCCC4)ccc31)[C@H](C(N)=O)[C@H]1C(=O)O[C@H](c3ccccc3)[C@H](c3ccccc3)N1[C@@H]2c1ccccc1OCCO", -1.6],
  ["CC(CO)N1C(=O)[C@@H]2[C@H]3C(=O)OCC=C[C@H]3OC23C=CCN(CCN2CCOCC2)C(=O)[C@@H]13 (some centres undefined)", 0.12],
  ["CO[C@]12C=C(Br)[C@@H](C[C@@H]1c1cccc(C)c1)[C@@]1(CO1)C2=O", -0.693],
  ["C=C(COC)C(=O)CC[C@@H](OC(=O)c1cccnc1)c1ccc(OCCO)cc1", -0.374],
  ["CCOC(=O)C[C@H]1[C@H](OC(=O)c2cc3ccccc3oc2=O)[C@@H](NC(=O)c2ccc(-c3ccccc3)cc2)c2cc(OCCCO)ccc2N1C(=O)c1ccccc1", -0.595],
  ["NC(N)=NCCCn1cc(CNC(=O)[C@@H](N)Cc2ccccc2)nn1", 0.225],
  ["CCOC(=O)C1=C[C@@H](c2ccccc2)N(S(=O)(=O)c2ccc(C)cc2)[C@H]1c1ccccc1Cl", 0.38],
  ["CCOC(=O)C[C@H]1[C@H](OC(=O)c2ccc(C(=O)c3ccccc3)cc2)[C@@H](NC(=O)Cc2ccc(OC)cc2)c2cc(OCCCO)ccc2N1C(=O)c1ccccc1", -0.107],
  ["C#CCN([C@@H](Cc1ccc(O)cc1)C(=O)OC)[C@@H](/C=C/C1CC1)[C@H](O)Cc1ccccc1", -1.58],
  ["CCOC(=O)C[C@H]1[C@H](OC(=O)c2ccccc2-c2ccccc2)[C@@H](NC(=O)C2CCCCC2)c2cc(OCCCO)ccc2N1C(=O)Cc1ccc(OC)cc1", -0.663],
  ["O=C1NC(=O)C2C1C=CC(C(O)c1cccc3ccccc13)N2Nc1ccc(Cl)cc1Cl (centres undefined)", -0.213],
  ["CN(C)C(=O)[C@@]1(Cc2ccccc2CN=[N+]=[N-])N=C(c2ccc(OCCCO)cc2)O[C@H]1c1ccccc1CN=[N+]=[N-]", -2.11],
  ["COCCOC(=O)N1C(=O)[C@@]2(c3cc(C#CCC(C(=O)OC)C(=O)OC)ccc31)[C@H](C(=O)N1CCc3cc(OC)c(OC)cc3C1)[C@H]1C(=O)O[C@H](c3ccccc3)[C@H](c3ccccc3)N1[C@@H]2c1ccc(OCCO)cc1", -1.28]
]}
